Data origin: ChEMBL document CHEMBL3259804

test_target: Receptor-type tyrosine-protein kinase FLT3 (Homo sapiens)
Sequence (P36888 whole entry): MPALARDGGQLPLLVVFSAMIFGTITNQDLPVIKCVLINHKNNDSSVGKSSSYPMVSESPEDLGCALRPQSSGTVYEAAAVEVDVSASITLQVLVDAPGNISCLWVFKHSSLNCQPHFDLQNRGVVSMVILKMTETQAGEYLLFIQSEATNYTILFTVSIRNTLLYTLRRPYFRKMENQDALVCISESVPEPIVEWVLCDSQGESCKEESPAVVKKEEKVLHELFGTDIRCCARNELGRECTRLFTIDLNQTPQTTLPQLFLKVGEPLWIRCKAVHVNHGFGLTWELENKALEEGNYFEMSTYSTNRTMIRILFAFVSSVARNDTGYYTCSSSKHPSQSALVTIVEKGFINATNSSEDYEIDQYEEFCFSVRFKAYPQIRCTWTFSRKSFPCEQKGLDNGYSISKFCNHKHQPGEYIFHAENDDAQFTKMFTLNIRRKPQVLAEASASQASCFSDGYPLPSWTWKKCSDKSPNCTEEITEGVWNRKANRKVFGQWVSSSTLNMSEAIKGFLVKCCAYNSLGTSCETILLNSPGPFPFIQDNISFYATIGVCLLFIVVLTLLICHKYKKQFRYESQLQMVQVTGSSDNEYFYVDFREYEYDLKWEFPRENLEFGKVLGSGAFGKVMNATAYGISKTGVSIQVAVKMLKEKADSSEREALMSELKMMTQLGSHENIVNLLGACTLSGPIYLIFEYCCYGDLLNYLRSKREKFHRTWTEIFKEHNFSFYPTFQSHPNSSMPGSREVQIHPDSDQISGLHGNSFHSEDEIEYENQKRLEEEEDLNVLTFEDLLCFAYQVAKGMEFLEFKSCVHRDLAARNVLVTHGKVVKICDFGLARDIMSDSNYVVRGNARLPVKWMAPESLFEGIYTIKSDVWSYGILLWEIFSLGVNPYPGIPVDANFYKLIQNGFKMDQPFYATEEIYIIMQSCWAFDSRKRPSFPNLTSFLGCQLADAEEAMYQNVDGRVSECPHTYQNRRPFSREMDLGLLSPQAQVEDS
pIC50: −log10 of the molar value.
experimental_readout: pIC50

>  <substance_smiles>
N[C@H]1COCC[C@H]1Nc1cc2cc[nH]c(=O)c2c(Nc2cccc3cc[nH]c23)n1

>  <test_target>
Receptor-type tyrosine-protein kinase FLT3 (Homo sapiens)

>  <experimental_value>
7.70

$$$$
